pKi: −log10 of the molar value.
Carbonic anhydrase 1 (Homo sapiens) pKi data
Sequence (P00915 whole entry): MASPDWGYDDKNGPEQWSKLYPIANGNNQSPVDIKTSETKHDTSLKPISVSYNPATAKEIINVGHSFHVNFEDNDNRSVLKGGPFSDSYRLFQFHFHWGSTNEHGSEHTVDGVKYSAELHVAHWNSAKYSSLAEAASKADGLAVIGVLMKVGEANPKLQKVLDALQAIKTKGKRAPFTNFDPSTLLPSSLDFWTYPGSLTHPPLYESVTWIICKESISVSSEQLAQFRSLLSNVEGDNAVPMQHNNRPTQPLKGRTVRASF

INSERT INTO measurements (chemical_string, test_result) VALUES
  ('Nc1ncnc2c1ncn2Cc1cn(-c2cccc(S(N)(=O)=O)c2)nn1', '< 5.00');

Need pKi, item CN(C)/C=N/c1ncnc2c1ncn2CC(=O)Nc1cccc(S(N)(=O)=O)c1
< 5.00

----------
Carbonic anhydrase 9 (Homo sapiens, UniProt Q16790) Ki data
Please state the number and follow it with the unit.

For orientation, consider the following solved cases.
INSERT INTO results (chemical_string, property_measured, test_result) VALUES
  ('NS(=O)(=O)c1ccc(CCNC(=O)Cn2ccc(=O)[nH]c2=O)cc1', 'Ki', '46 nM'),
  ('Nc1ncnc2c1ncn2CC(=O)Nc1cccc(S(N)(=O)=O)c1', 'Ki', '428 nM'),
  ('CN(C)/C=N/c1ncnc2c1ncn2CC(=O)NCc1ccc(S(N)(=O)=O)cc1', 'Ki', '166 nM');

State its Ki on Carbonic anhydrase 9 (Homo sapiens, UniProt Q16790): Nc1ncnc2c1ncn2CCOc1ccc(S(N)(=O)=O)cc1
29.9 nM

CN(C)/C=N/c1ncnc2c1ncn2CC(=O)Nc1ccc(S(N)(=O)=O)cc1 , same question.
40 nM

Nc1ncnc2c1ncn2CC(=O)NCc1ccc(S(N)(=O)=O)cc1 , same question.
45.2 nM

Nc1ncnc2c1ncn2Cc1cn(-c2cccc(S(N)(=O)=O)c2)nn1 , same question.
1310 nM

Nc1ncnc2c1ncn2CC(=O)Nc1ccc(S(N)(=O)=O)cc1 , same question.
16.9 nM

Nc1ncnc2c1ncn2CC(=O)NCCc1ccc(S(N)(=O)=O)cc1 , same question.
11.4 nM
